The measured values listed here are drawn from patent US20260250290A1.

- TARGET_UNDER_TEST: full length SGK1 (Homo sapiens, UniProt O00141)
- Construct: 125 μM full length SGK1 (Life Technologies Part #PR7358A); purchased Life Technologies PR7358A
- Sequence (O00141 whole entry): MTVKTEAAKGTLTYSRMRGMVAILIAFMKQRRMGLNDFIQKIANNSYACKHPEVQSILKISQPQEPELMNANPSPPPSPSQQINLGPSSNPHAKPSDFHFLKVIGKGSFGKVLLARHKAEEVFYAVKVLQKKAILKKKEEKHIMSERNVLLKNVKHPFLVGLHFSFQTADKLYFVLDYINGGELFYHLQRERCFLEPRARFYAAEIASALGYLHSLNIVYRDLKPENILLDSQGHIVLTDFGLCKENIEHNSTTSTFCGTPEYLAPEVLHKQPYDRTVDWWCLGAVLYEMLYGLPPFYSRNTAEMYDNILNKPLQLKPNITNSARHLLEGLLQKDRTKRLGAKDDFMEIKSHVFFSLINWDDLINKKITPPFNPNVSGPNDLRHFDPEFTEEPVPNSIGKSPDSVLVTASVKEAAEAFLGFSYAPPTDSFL
- TEST_NAME: SGK1 inhibition Assay A (Caliper LabChip electrophoretic separation of fluorescent peptide substrate and phosphorylated product)
- Format: biochemical
- CONDITION: Assay A; 20 μM ATP, 40 min incubation; read-out: SGK1 IC50
PROPERTY_NAME: IC50 (nM)
One number for each entry, in nM.

Study these solved cases before continuing.
                           substance_smiles  property_name  experimental_result
0  Nc1ncnn2c(-c3cccc(CO)c3)cc(N3CCC[C@@H](NC(=O)c4ccc(Cl)s4)C3)c12           IC50                   11
1  Nc1ncnn2c(C3=CCN(C(=O)c4ccns4)C3)cc(N3CCC[C@@H](NC(=O)c4ccc(Cl)s4)C3)c12           IC50                    8

Note: attention shifts to another entry.
Form field: IC50 recorded for "CC(=O)N1CCC(Oc2cc(C(F)F)sc2C(=O)N[C@@H]2CCCN(c3cc(-c4cnc(C#N)c(C)c4)n4ncnc(N)c34)C2)CC1" with full length SGK1 (Homo sapiens, UniProt O00141) (enter value)
8
